- assayedTarget: T1, Human VSIG4-L-Fc (human)
- T1 construct: also called hVSIG4-L-Fc; hVSIG4-L
- T1 sequence (chain, as listed by the source limits assumed): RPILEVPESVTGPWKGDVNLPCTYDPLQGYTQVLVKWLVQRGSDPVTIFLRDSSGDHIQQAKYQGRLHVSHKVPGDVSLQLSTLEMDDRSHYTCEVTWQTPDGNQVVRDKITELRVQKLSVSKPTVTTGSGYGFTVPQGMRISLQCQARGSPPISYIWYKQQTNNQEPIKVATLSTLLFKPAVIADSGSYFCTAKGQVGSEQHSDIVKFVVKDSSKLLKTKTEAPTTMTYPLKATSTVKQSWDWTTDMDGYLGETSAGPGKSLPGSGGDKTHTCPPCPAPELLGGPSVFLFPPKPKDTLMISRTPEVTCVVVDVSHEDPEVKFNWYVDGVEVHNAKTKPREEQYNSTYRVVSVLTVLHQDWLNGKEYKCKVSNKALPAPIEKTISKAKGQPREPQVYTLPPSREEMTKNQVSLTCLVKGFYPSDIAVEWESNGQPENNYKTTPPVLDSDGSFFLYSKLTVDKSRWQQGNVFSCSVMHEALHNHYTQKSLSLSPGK
- assayNotes: BLI binning on hVSIG4-L-Fc, competitor 12A12 first;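 note: normalized to binding of second antibody without first competitor antibody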
recordedEndpoint: normalized maximum binding nm shift (normalized)
The response must be a number in normalized with no trailing unit.

binder | recordedEndpoint | number
15C03 mouse/human chimeric IgG4 (S228P) kappa (antibody, V domains shown) VH: EVKLLESGPGLVKPSQSLSLTCTVTGYSITSDYAWNWIRQFPGNKLEWMGYISYSGSTRYNPSLKSRISITRDTSNNQFFLQLNSVTTEDTATYYCARSGYAAMDYWGQGTSVTVSS VL: ENVLTQSPAIMSASPGEKVTMTCRASSSVSSSYLHWYQQKSGASPKLWIYSTSNLASGVPARFSGSGSGTSYSLTISSVEAEDAATYYCQQYSGYPLTFGSGTKLEIKR | normalized maximum binding nm shift | 0.76
13H11 mouse/human chimeric IgG4 (S228P) kappa (antibody, V domains shown) VH: QIQLVQSGPELKKPGETVKISCKASGYTFENFGMNWVKQAPGKGLKWMGWINTYTGEATYADDFKGRFAFSLETSASTAYLQINNLKNEDTATYFCARDGGFRHFDVWGAGTTVTVSS VL: ETTVTQSPASLSVATGEKVTIRCITSTDIDDDMNWYQQKPGEPPKLLISEGNTLRPGVPSRFSSSGYGTDFVFTIENMLSEDVADYYCLQSDNLPLTFGAGTKLELKR | normalized maximum binding nm shift | 0.74

Problem: Please look up its normalized maximum binding nm shift: 12A08 mouse/human chimeric IgG4 (S228P) kappa (antibody, V domains shown) VH: EVMLVESGGGLVKPGGSLKLSCAASGFTFDDFYMYWVRQTPEKRLEWVASISDGGTYTYYPDSVKGRFTISRDNAKNTLYLQLSSLKSEDTAMYYCARGVDKYYYAMDYWGQGTSVTVSS VL: QILLTQSPAIMSASPGEKVTITCSASSSVSYMHWFQQKPGTSPKLWIYSTSNLASGVPARFSGSGSGTSYSLTISRMEAEDAATYYCQQRSSYPLTFGAGTKLELKR
Solution: 0.78

The measurements presented in this section are drawn from patent US20230348603A1.
